# System: MOLT-4 leukemia
# assay.info: NCI-60 one-dose screen, 48 h (100 = growth as untreated, 0 = no growth, -100 = all killed)
# test.context: 10 µM unless noted
Compounds without any hit were thinned out: in the full panel of roughly 83,000, 20% have a hit.
measured.metric: growth (%)
Please state the figure in %; there is no need to write the unit.

Form field: reported growth of `CN(C)c1ccc(/C=N/N=C(N)N)cc1`
83.2

Next: CC1OC(n2c3ccccc3c3c4c(c5c6ccccc6[nH]c5c32)C(=O)N(CCN[C@@H]2CCC[C@H]2N)C4=O)CC(O)C1O (stereo not given in full)
2.71

Next entry: `CCOc1ccc(NC(=O)Nc2cc(C(C)C)ccc2C)cc1`
72.2

Same question, `COc1cc(C(=O)NNC(=O)c2ccccc2C(=O)O)cc(OC)c1OC` this time
-5.79

Lookup `CN(C)CCCOc1c(Br)cc(/C=C/C(=O)N(C)CCc2cc(Br)c(OCCCN(C)C)c(Br)c2)cc1Br`
-1.09
